protocol description: CCTE_Shafer_MEA_dev_LDH: CCTE's Lactate Dehydrogenase Assay for Cytotoxicity in the Neural Network Formation Assay, Shafer Lab (AID 2284068);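 further: exposure for twelve days from plating with re-dosing on DIV 5 and 9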
Results filed as inconclusive are left out. Active and inactive are the calls of the source. How the source made its calls: active means hit-call score of the fitted dose curve at least 0.9, where 1 is the maximum; inconclusive means response in the unintended direction; inactive means score below 0.9.
Outcomes: 1.0 = active, 0.0 = inactive

• OCCC(F)(F)C(F)(F)C(F)(F)C(F)(F)C(F)(F)C(F)(F)C(F)(F)C(F)(F)F = 1.0
• c1ccc2c(c1)Cc1ccccc1-2 = 0.0
• CC1=C(/C=C/C(C)=C/C=C/C(C)=C/C(=O)O)C(C)(C)CCC1 = 1.0
• C=C(C)C(=O)OCCC(F)(F)C(F)(F)C(F)(F)C(F)(F)C(F)(F)C(F)(F)F = 0.0
• c1ccc2cc3c(ccc4ccccc43)cc2c1 = 0.0
